These entries and their values trace back to patent US9878996B2.

assayed.system: UniProt:P29477
condition.summary: selectivity nNOS over iNOS
Decide using Ratios n/i: a value greater than or equal to 30 is YES, a smaller one is NO.

// below: answered compounds
> print(dat)
                                   compound  assayed.system  label.value
1    Cc1cn(-c2nccc(CCNCCCc3cccc(F)c3)n2)cn1  UniProt:P29477          YES
2       Fc1cccc(CCNCCNc2ccnc(-n3ccnc3)n2)c1  UniProt:P29477           NO
3  Fc1cccc(C2CC2CNCCc2ccnc(-n3ccnc3)n2)c1 (centres unmarked)  UniProt:P29477          YES
4        Fc1cccc(CCCNCc2ccnc(-n3ccnc3)n2)c1  UniProt:P29477           NO

Let's switch to this compound now.
-- ask Determine whether this compound has Ratios n/i no lower than 30: Clc1cccc(CCCNCCc2ccnc(-n3ccnc3)n2)c1
-- reply NO
